target.system: T1, mouse DLL4 extracellular domain (mouse, UniProt Q9JI71 27-532)
T1 construct: extracellular domain; also called muDLL4 ECD; murine DLL4
T1 sequence (Q9JI71 27-532): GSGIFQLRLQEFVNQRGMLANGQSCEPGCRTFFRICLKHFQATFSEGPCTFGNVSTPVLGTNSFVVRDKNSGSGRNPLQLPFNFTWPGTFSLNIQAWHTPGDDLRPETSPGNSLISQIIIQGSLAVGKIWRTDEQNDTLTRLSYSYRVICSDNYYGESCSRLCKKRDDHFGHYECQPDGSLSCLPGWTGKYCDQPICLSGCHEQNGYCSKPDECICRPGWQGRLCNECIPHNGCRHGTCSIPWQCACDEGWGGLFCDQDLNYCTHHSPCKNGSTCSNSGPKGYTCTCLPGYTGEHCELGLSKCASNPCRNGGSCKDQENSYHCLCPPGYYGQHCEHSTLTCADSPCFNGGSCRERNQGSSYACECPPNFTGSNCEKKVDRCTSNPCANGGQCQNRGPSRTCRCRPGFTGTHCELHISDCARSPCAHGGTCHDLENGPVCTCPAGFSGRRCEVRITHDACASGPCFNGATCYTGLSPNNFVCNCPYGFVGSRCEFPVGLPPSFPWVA
procedure.summary: SPR (Biacore)
Parameter koff: see the listing below.
The response must be a number in s⁻¹ with no trailing unit.

| binder | unit.annotation | experimental.result |
| --- | --- | --- |
| 32C7 rat anti-DLL4 monoclonal antibody (antibody, rat IgG2a, V domains shown, rat IgG2a/k hybridoma mAb; also called MC10-32C7.5A4) VH: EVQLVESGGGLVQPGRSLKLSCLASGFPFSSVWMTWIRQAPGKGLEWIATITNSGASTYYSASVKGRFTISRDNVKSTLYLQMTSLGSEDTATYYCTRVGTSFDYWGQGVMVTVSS VL: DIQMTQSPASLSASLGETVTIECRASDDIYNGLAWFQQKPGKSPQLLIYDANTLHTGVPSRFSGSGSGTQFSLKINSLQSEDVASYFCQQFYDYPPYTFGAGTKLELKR | s⁻¹ | 0.0041 |
| 14A11 rat anti-DLL4 monoclonal antibody (antibody, rat IgG2a, V domains shown, rat IgG2a/K hybridoma mAb; also called MC13-14A11.3A4) VH: EVQLQQSGPELAKPGSSVKISCKASGYTFTNSYISWIKQTTGQGLEYVGYINTGSGGADYNEKFKGKATLTVDKSSRTAFMQLSSLTPGDSAVYYCAKSILLGSTCYFDYWGQGVLVTVSS VL: NTVLTQSPALAVSLGQRVTISCKASRSVSSPMYSYIYWYQQKPGQQPKLLIYRASTLASGVPARFSGSGSGTDFTLNIDPVEADDIATYFCQQSWSDPFTFGSGTKLEIKR | s⁻¹ | 9e-05 |

Here is another binder to look at.
Query block: Bench note: what koff did 37D10 rat anti-DLL4 monoclonal antibody (antibody, rat IgG2a, V domains shown, rat IgG2a/k hybridoma mAb; also called 40B10; 37D10 = 40B10) VH: AVQLVESGGGLVQPKESLKISCAASGFTFSNAAMYWVRLAPGKGLEWVARIRTKPNNYATYYAESVKGRFTISRDDSKSMVYVQMDNLKTEDTAMYYCTAAPWRDSYAHVYWGQGVMVTVSS VL: DIQMTQSPPVLSASVGDRVTLSCKASQNIHKNLDWYQQKHGDAPKLLIYYTDHLQTGVPSRFSGSGSATDYTLTISSLQPEDVATYYCYQYNGGPFTFGSGTKLEIKR show?
Result block: 0.0135
